B1: CPXM2 (parent)
chain: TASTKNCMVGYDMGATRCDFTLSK

# Variants of: B1
# Test Protocol: protein stability index of a GFP-peptide fusion (GPS, HEK-293T) (PSI 1-6); higher = more stable;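 note: lentivirally expressed fusions sorted by FACS into six bins by GFP to DsRed ratio, PSI derived from sequencing read proportions per bin multiplied by bin number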
# Measurement Setup: c terminus: a fixed tail appended
Recorded Endpoint: protein stability index
Write the value as a bare number.

Some variants with recorded protein stability index:
>  <Primary Sequence>
TASTKNCMVKYDMGATRCDFTLSK

>  <Readout Number>
2.42

$$$$
>  <Primary Sequence>
TAWTKNCMVGYDMGATRCDFTLSK

>  <Readout Number>
2.09

$$$$
>  <Primary Sequence>
TASTKNCMVGYDMGATRCDFELSK

>  <Readout Number>
3.16

$$$$
>  <Primary Sequence>
TASTKNCMVGHDMGATRCDFTLSK

>  <Readout Number>
3.32

$$$$
>  <Primary Sequence>
TASTKNCMIGYDMGATRCDFTLSK

>  <Readout Number>
2.49

$$$$

Now for the variant whose protein stability index we want.
Enquiry: Find the recorded protein stability index belonging to "TASTKNWMVGYDMGATRCDFTLSK" and report it.
Return: 2.99
